SYSTEM: UniProt P0DTD1
RESULT_TYPE: pIC50
Lab note: report pIC50 as minus log10 of the concentration in molar units, number only.

Some entries whose results are on file:
MOLECULE | pIC50
O=C(Cc1cc(Cl)cc(Nc2ccc([N+](=O)[O-])cc2C(F)(F)F)c1)Nc1cncc2ccccc12 | 5.70
O=C(Nc1ccc2ccccc2c1)[C@@H]1CN(C(=O)CCl)CCN1S(=O)(=O)c1ccsc1 (stereo in doubt) | 6.28
O=C(Nc1cncc2ccccc12)C1CCOc2c(OCc3ccccn3)cc(Cl)cc21 (stereo not drawn) | 5.19

Hi! What's the reported pIC50 for Cc1cccn2ncc(NC(=O)C3CNC(=O)c4ccc(Cl)cc43)c12 (stereo not drawn) on UniProt P0DTD1? 5.62

Hi! What's the reported pIC50 for "Nc1ccc2c(c1)C(=O)N(c1cc(Cl)cc(CC(=O)Nc3cncc4ccccc34)c1)C2=O" on UniProt P0DTD1? 5.73

###

A set of compounds tested on SARS-CoV-2 Main Protease (SARS-CoV-2) (UniProt P0DTD1), with measured IC50:
Just so you know, I need the unit written after the number.

Some entries whose results are on file:
COMPOUND | RESULT
O=C(Nc1cncc2ccccc12)C1COCc2ccc(Cl)cc21 (stereo not drawn) | 8.08 µM
O=C(Nc1cncc2ccccc12)[C@@H]1CN(S(=O)(=O)CC2CS(=O)(=O)C2)Cc2ccc(Cl)cc21 (stereo in doubt) | 8.23 µM

Next compound, please.
Hi! What's the reported IC50 for "O=C(Cc1cccc(Cl)c1)Nc1c(O)cnc2ccccc12" on SARS-CoV-2 Main Protease (SARS-CoV-2) (UniProt P0DTD1)? 8.44 µM

###

A set of molecules tested on SARS-CoV-2 Main Protease (SARS-CoV-2) (UniProt P0DTD1), with measured IC50:
Give the quantity in µM, number only.

MOLECULE | UNIT_OF_MEASUREMENT | IC50
CC(C)(C)c1ccc(N(C(=O)c2cocn2)C(C(=O)NC2CCOC2)c2cccnc2)cc1 (stereo not drawn) | µM | 2.77

Hi! What's the reported IC50 for "O=C(Cc1cc(Cl)cc(Nc2cc(Cl)cc([N+](=O)[O-])c2O)c1)Nc1cncc2ccccc12" on SARS-CoV-2 Main Protease (SARS-CoV-2) (UniProt P0DTD1)? 4.69

Hi! What's the reported IC50 for C[C@H]1C[C@H](C(=O)Nc2cncc3ccccc23)c2cc(Cl)ccc2O1 (stereo in doubt) on SARS-CoV-2 Main Protease (SARS-CoV-2) (UniProt P0DTD1)? 52.1

Hi! What's the reported IC50 for CC(C)(C)c1ccc(N(C(=O)c2ccco2)C(C(=O)N2CCOCC2)c2cccnc2)cc1 (stereo not drawn) on SARS-CoV-2 Main Protease (SARS-CoV-2) (UniProt P0DTD1)? 41

Hi! What's the reported IC50 for COC(=O)[C@@H]1C[C@H](NC(=O)C(c2cccnc2)N(C(=O)c2cocn2)c2ccc(C(C)(C)C)cc2)CN1C(=O)OC(C)(C)C (stereo in doubt) on SARS-CoV-2 Main Protease (SARS-CoV-2) (UniProt P0DTD1)? 2.66

###

A set of compounds tested on UniProt P0DTD1, with measured IC50:

Some entries whose results are on file:
SUBSTANCE_SMILES | SYSTEM | IC50
Cc1ccc(NCc2nnc3n(C)c(=O)c4ccccc4n23)cc1C | UniProt P0DTD1 | > 99.5 µM
Cc1ccncc1NC(=O)Cc1cc(Cl)cc(OCc2ncc[nH]2)c1 | UniProt P0DTD1 | > 99.5 µM

Next compound, please.
Hi! What's the reported IC50 for "Cc1cc2c(N)nc(=O)n(CC(=O)Nc3cccc(Cl)c3)c2s1" on UniProt P0DTD1? > 99.5 µM

###

SYSTEM: SARS-CoV-2 Main Protease (SARS-CoV-2) (UniProt P0DTD1)
pIC50: −log10 of the molar value.
Grouping key: pIC50. Bins: lower band = under 5, central band = from 5 up to 6, upper band = 6 and over

// known answers, use as guide
COMPOUND | DISCRETE_LABEL
Cc1ccncc1NC(=O)Cc1ccccc1N | lower band
COc1nc(Br)cnc1Nc1cc(Cl)cc(CC(=O)Nc2cncc3ccccc23)c1 | central band
C[C@@H](C(=O)Nc1cncnc1)c1ccccc1 (stereo in doubt) | lower band
O=C(Cc1cc(Cl)cc(Nc2cccc(F)c2[N+](=O)[O-])c1)Nc1cncc2ccccc12 | central band
Cc1nc(Cl)c(Nc2cc(Cl)cc(CC(=O)Nc3cncc4ccccc34)c2)c(Cl)n1 | central band

Switching to the query record.
Which pIC50 category applies to "Nc1cccc2c(=O)[nH]n(-c3cc(Cl)cc(CC(=O)Nc4cncc5ccccc45)c3)c(=O)c12" here? central band

###

A set of compounds tested on SARS-CoV-2 Main Protease (SARS-CoV-2) (UniProt P0DTD1), with measured pIC50:
Lab note: report pIC50 as minus log10 of the concentration in molar units, number only.

Some entries whose results are on file:
COMPOUND | SYSTEM | NUMERIC_RESULT
O=C(Cc1cc(Cl)cc(Nc2ccc(Cl)c(Cl)c2)c1)Nc1cncc2ccccc12 | SARS-CoV-2 Main Protease (SARS-CoV-2) (UniProt P0DTD1) | 5.64
O=C(Nc1ccccc1)[C@@H]1CN(C(=O)CCl)CCN1S(=O)(=O)c1ccsc1 (stereo in doubt) | SARS-CoV-2 Main Protease (SARS-CoV-2) (UniProt P0DTD1) | 6.15
COc1cccc(CNc2cc(Cl)cc(CC(=O)Nc3cncc4ccccc34)c2)c1OC | SARS-CoV-2 Main Protease (SARS-CoV-2) (UniProt P0DTD1) | 5.61
Cc1ccncc1NC(=O)CN1CCC(C)CC1 | SARS-CoV-2 Main Protease (SARS-CoV-2) (UniProt P0DTD1) | 4.31
Cc1ccncc1NC(=O)Cc1cc(Cl)cc(NCC(C)(C)C#N)c1 | SARS-CoV-2 Main Protease (SARS-CoV-2) (UniProt P0DTD1) | 4.44

Hi! What's the reported pIC50 for CNC(=O)CN1C[C@@]2(CC(=O)N(c3cncc4ccccc34)C2=O)c2cc(Cl)ccc2C1=O (stereo in doubt) on SARS-CoV-2 Main Protease (SARS-CoV-2) (UniProt P0DTD1)? 6.91

Hi! What's the reported pIC50 for O=C(NCCc1cccc(F)c1)C(c1cccnc1)N(C(=O)c1cocn1)c1ccc2nc(C(F)(F)F)[nH]c2c1 (stereo not drawn) on SARS-CoV-2 Main Protease (SARS-CoV-2) (UniProt P0DTD1)? 4.11

###

SYSTEM: SARS-CoV-2 Main Protease (SARS-CoV-2) (UniProt P0DTD1)
Documented IC50 across a set of compounds

COMPOUND | IC50
O=C(NCCc1cccc(F)c1)C(c1cccnc1)N(C(=O)c1cocn1)C1CCCCC1 (stereo unspecified) | > 99.5 µM

Any idea what IC50 was measured for "Cc1ccc(S(=O)(=O)NCC(=O)N2CCC(NS(N)(=O)=O)CC2)cc1" ? > 99.5 µM

Any idea what IC50 was measured for "O=C(Cc1cccc(Cl)c1)Nc1n[nH]c2ccnc(Br)c12" ? > 99.5 µM

Any idea what IC50 was measured for CC(C)(C)c1ccc(N(C(=O)c2cc(=O)[nH]c(=O)[nH]2)C(C(=O)NCCc2cccc(F)c2)c2cccnc2)cc1 (stereo unspecified) ? > 99.5 µM

Any idea what IC50 was measured for "CC(=O)N1CCN(CC(=O)Nc2cnccc2C2CC2)CC1" ? > 99.5 µM

Any idea what IC50 was measured for "Cc1nc2cc(C(=O)NNc3ccnc4cccnc34)ccc2o1" ? > 99.5 µM

###

A set of compounds tested on SARS-CoV-2 Main Protease (SARS-CoV-2), with measured IC50:

COMPOUND | IC50
CC(C)(C)c1ccc(N(C(=O)c2[nH]nc(O)c2CCO)C(C(=O)NCCc2cccc(F)c2)c2cccnc2)cc1 (stereo not drawn) | > 99.5 µM
COC(=O)c1cc(/C=c2\s/c(=C(/C#N)C(=O)NC(C)C)n(-c3ccc(OC)c(F)c3)c2=O)oc1C | > 99.5 µM

Any idea what IC50 was measured for "CC1(C)OB(c2cnc(C#N)nc2)OC1(C)C" ? > 99.5 µM

###

SYSTEM: SARS-CoV-2 Main Protease (SARS-CoV-2)
pIC50: −log10 of the molar value.
RESULT_TYPE: pIC50

Some entries whose results are on file:
MOLECULE | pIC50
O=C(O)c1ccc(CNCc2c[nH]nc2-c2cccs2)cc1 | < 4.00
CC(Cc1nc2ccccc2s1)Nc1ccc2nnnn2n1 (stereo not drawn) | < 4.00
COC(C)(C)/C=C/C[C@@H](C)[C@H]1CC[C@@]2(C)[C@@H]3[C@@H](O[C@@H]4O[C@H](CO)[C@@H](O)[C@H](O)[C@H]4O)C=C4[C@@H](CC[C@H](O)C4(C)C)[C@]3(C=O)CC[C@]12C (stereo in doubt) | < 4.00

Any idea what pIC50 was measured for CC(C)(C)c1ccc(N(C(=O)c2nc(CN3CCOCC3)cs2)C(C(=O)NCCc2cccc(F)c2)c2cccnc2)cc1 (stereo not drawn) ? < 4.00

Any idea what pIC50 was measured for CN(C)S(=O)(=O)N1CCN(C(=O)C2Nc3ccccc3S(=O)(=O)N2)CC1 (stereo not drawn) ? < 4.00

Any idea what pIC50 was measured for "Cc1csc2ncc(C(=O)N3C4CCC3c3ccccc34)c(=O)n12" ? < 4.00

Any idea what pIC50 was measured for "COCc1csc(CNC(=O)c2ncc(Cl)cc2Cl)c1" ? < 4.00

Any idea what pIC50 was measured for "O=C1CCN(S(=O)(=O)c2cccs2)CC1" ? < 4.00

meta.source: the COVID Moonshot data (paper PMC7615835)
